Task for the reader: assign each of the following binders its reported OD450.
Molecular target: T1, Peptide 8: Biotin-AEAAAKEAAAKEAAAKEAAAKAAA-Tyr-acid (N-terminal biotin; C-terminal acid)
T1 construct: Control peptide without PC
T1 peptide: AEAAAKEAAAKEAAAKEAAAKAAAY
Assay: scFv ELISA
Write the answer as a number in OD450, unit excluded.

Indicate the recorded OD450 value for this binder: PcOxP_DB03_B08 (scFv, V domains shown, scFv in periplasmic extract) VH: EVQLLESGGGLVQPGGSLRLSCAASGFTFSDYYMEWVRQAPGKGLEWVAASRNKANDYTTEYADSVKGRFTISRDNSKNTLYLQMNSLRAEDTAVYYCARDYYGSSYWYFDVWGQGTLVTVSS VL: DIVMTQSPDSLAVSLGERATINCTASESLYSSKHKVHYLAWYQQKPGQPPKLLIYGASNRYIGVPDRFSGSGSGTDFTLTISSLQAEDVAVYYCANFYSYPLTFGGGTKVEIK
0.04

Write down OD450 measured for item PcOxP_DB04_F05 (scFv, V domains shown, scFv in periplasmic extract) VH: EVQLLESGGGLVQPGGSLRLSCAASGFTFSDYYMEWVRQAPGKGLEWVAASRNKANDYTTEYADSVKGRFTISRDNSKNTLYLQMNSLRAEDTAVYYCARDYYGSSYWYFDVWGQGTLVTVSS VL: DIVMTQSPDSLAVSLGERATINCTASESLYSSNHKVHYLAWYQQKPGQPPKLLIYGVSNRYIGVPDRFSGSGSGTDFTLTISSLQAEDVAVYYCAQFYSYPLTFGGGTKVEIK
0.05
